Record form. Attribute: IC50. Fill in for each entry.
# assay system: human recombinant P2X7 receptor (Homo sapiens (Human))
# protocol: YO-PRO assay: P2X7 receptor antagonistic activity (ATP-induced YO-PRO-1 uptake, FLIPR)
Answers are plain numbers, in nM.

Some molecules with recorded IC50:
molecule | measurement unit | test result
O=C(NCc1ccc(Cl)cc1)C1COc2ncccc21 (racemic) | nM | 795
O=C(NCCc1ccc(Cl)cc1Cl)C1CCOc2ncccc21 (racemic) | nM | 67.1
O=C(NCc1ccc(Oc2ccccc2)cc1)C1CCOc2ncccc21 (racemic) | nM | 255
O=C(NCc1ccc(C(F)(F)F)cc1Cl)C1COc2ncccc21 (racemic) | nM | 80.4
Cc1ncc(C(CNC(=O)C2COc3ncccc32)N2CCC(F)(F)CC2)cn1 (single isomer, unassigned) [Example 27] | nM | 1360

Below are some molecules; for each one, tell me its IC50.
1. C=Cc1cc(Cl)cc(Cl)c1CNC(=O)C1COc2ncccc21 (racemic)
2. O=C1CC(NC(=O)C2COc3ncccc32)c2ccccc21 (racemic) [Example 89]
3. [2H]C([2H])([2H])c1cc(Cl)cc(Cl)c1CNC(=O)C1COc2ncccc21 (single isomer, unassigned) [Example 97]

1: 12.2; 2: 2510; 3: 20

###

Record form. Attribute: IC50. Fill in for each entry.
# assay system: human recombinant P2X7 receptor (Homo sapiens (Human), UniProt Q99572)
# Sequence (Q99572 whole entry): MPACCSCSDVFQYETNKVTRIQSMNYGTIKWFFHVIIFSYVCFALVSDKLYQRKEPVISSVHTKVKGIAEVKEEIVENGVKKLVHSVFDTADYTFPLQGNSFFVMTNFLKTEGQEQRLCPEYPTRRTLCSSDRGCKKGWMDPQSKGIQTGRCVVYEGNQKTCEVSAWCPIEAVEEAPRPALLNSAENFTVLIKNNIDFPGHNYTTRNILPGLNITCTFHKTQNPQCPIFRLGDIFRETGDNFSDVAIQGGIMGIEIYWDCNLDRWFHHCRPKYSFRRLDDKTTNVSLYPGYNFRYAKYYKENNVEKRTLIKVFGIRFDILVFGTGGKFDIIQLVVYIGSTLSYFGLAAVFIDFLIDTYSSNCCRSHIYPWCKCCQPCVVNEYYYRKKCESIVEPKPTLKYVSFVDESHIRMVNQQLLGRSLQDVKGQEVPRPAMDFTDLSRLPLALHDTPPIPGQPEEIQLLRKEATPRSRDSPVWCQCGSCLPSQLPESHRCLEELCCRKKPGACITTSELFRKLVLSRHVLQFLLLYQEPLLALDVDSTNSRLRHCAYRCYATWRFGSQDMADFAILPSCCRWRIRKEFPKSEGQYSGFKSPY
# protocol: YO-PRO assay: P2X7 receptor antagonistic activity (ATP-induced YO-PRO-1 uptake, FLIPR)
# protocol conditions: read-out: IC50 [nM], antagonistic activities with respect to the P2X7 receptor; HEK-293 cells expressing human recombinant P2X7 receptor; YO-PRO-1 fluorescence; ATP 250 μM, 90 minutes; highest concentration 10 μM
Answers are plain numbers, in nM.

compound | measurement unit | IC50
C[C@@H](NC(=O)C1COc2ncccc21)c1ccc(Cl)cc1Cl (stereo partly drawn) [Example 70] | nM | 110
O=C(NCC(c1cnc(C2CC2)nc1)N1CCOCC1)C1COc2ncccc21 (stereo not drawn) [Example 91] | nM | 215
O=C(N[C@H](CO)C1CCCCC1)C1COc2ncccc21 (single isomer, unassigned) [Example 2] | nM | 106
Cc1ccc(C(CNC(=O)C2COc3ncccc32)N2CCOCC2)cn1 (stereo not drawn) [Example 90] | nM | 1150
COc1ccc(C(CNC(=O)C2COc3ncccc32)N2CCOCC2)cn1 (stereo not drawn) [Example 87] | nM | 978
O=C(NCc1c(Cl)cc(Cl)cc1CO)C1COc2ncccc21 (single isomer, unassigned) [Example 25] | nM | 2.7
O=C(N[C@@H]1CCCc2cccc(Cl)c21)C1COc2ncccc21 (stereo partly drawn) [Example 111] | nM | 221
Cc1cc(Cl)cc(Cl)c1CNC(=O)C1CCOc2ncccc21 (single isomer, unassigned) [Example 18] | nM | 1.6
O=C(NCC(c1ccc(C(F)(F)F)cc1)N1CCC(F)(F)CC1)C1COc2ncccc21 (stereo not drawn) [Example 78] | nM | 122
O=C(NCc1c(Cl)cc(Cl)cc1Br)C1COc2ncccc21 (single isomer, unassigned) [Example 80] | nM | 4.1

Below are some compounds; for each one, tell me its IC50.
1. Cc1cc(Cl)cc(Cl)c1CNC(=O)C1COc2ncccc21 (single isomer, unassigned) [Example 3]
2. O=C(NCC(c1cnc(C(F)(F)F)nc1)N1CCOCC1)C1COc2ncccc21 (stereo not drawn) [Example 83]

1: 18.3; 2: 124

Below are some compounds; for each one, tell me its IC50.
1. O=C(N[C@H](CO)C1CCCCC1)C1COc2ncccc21 (single isomer, unassigned) [Example 1]
2. O=C(N[C@@H]1CCCc2ccccc21)C1COc2ncccc21 (stereo partly drawn) [Example 107]
3. O=C(NCC(c1ccc(C(F)(F)F)nc1)N1CCOCC1)C1COc2ncccc21 (stereo not drawn) [Example 92]
4. O=C(NC(CO)C1CCCCCC1)C1CCOc2ncccc21 (stereo not drawn) [Example 52]
5. O=C(NC1CCc2cccc(Br)c21)C1COc2ncccc21 (stereo not drawn) [Example 113]
6. O=C1c2c(Cl)cc(Cl)cc2CC1NC(=O)C1COc2ncccc21 (stereo not drawn) [Example 116]

1: 1070; 2: 1220; 3: 82.2; 4: 276; 5: 35.9; 6: 9010

Measured values drawn from patent US9409917B2 for this set.
